These measurements were taken from patent US5045302A.

Test: Rat biodistribution of Tc-99m complexes
Details: 60 min p.i.

{"columns": ["molecule", "Liver, % Injected dose/organ"],
 "data": [
  ["COC(CCP(CCC(OC)OC)CCP(CCC(OC)OC)CCC(OC)OC)OC", 0.67],
  ["COC(C)(C)CCP(CCP(CCC(C)(C)OC)CCC(C)(C)OC)CCC(C)(C)OC", 7.71],
  ["CCOCCP(CCOCCF)CCP(CCOCC)CCOCCF (stereo not drawn)", 1.78],
  ["CCOCP(CCP(COCC)COCC)COCC", 8.85],
  ["CCOCCP(CCCP(CCOCC)CCOCC)CCOCC", 10.9],
  ["CCCOCCP(CCOC)CCP(CCOC)CCOCCC (stereo not drawn)", 11.5]
]}

---

Experiment: Rat biodistribution of Tc-99m complexes
Settings: 2 min p.i.
Heart/Blood Counts/Gram Ratio reference

{"columns": ["compound", "Heart/Blood Counts/Gram Ratio"],
 "data": [
  ["CCOCP(CCP(COCC)COCC)COCC", 0.68],
  ["FC(F)(F)COCCCP(CCCOCC(F)(F)F)CCP(CCCOCC(F)(F)F)CCCOCC(F)(F)F", 0.17],
  ["CCOCC(COCC)CP(CCP(CC(COCC)COCC)CC(COCC)COCC)CC(COCC)COCC", 0.37],
  ["CCOCC[P+]1(CCOCC)CC[P+](CCOCC)(CCOCC)[Tc-3]12(=[O])(=[O])[P+](CCOCC)(CCOCC)CC[P+]2(CCOCC)CCOCC [[TcO2 (P53)2]^+]", 10.5],
  ["COC(C)CP(CCP(CC(C)OC)CC(C)OC)CC(C)OC (stereo not shown)", 1.27],
  ["COCCCP(CCCOC)CCP(CCCOC)CCCOC", 0.35],
  ["CCOCCCP(CCOC)CCP(CCCOCC)CCOC (stereo not shown)", 1.14],
  ["CCCOCCP(CCOC)CCP(CCOC)CCOCCC (stereo not shown)", 2.26],
  ["COC(CCP(CCC(OC)OC)CCP(CCC(OC)OC)CCC(OC)OC)OC", 0.37],
  ["CCOCCP(CCOCC)CCP(CCOCC)CCOCC [Compound 1, (EtOC2 H4)2 P--C2 H4 --P(C2 H4 OEt)2]", 10.5],
  ["CCOCCP(CCOC(C)C)CCP(CCOCC)CCOC(C)C (stereo not shown)", 3.05],
  ["CCC(CP(CCP(CC(CC)OC)CC(CC)OC)CC(CC)OC)OC (stereo not shown)", 1.04],
  ["COC(C)CCP(CCC(C)OC)CCP(CCC(C)OC)CCC(C)OC (stereo not shown)", 0.70]
]}

---

Experiment: Rat biodistribution of Tc-99m complexes
Settings: 60 min p.i.
Param label: returns criterion met when Liver < 7 % Injected dose/organ, returns criterion not met otherwise, including exact equality.

{"columns": ["compound", "label"],
 "data": [
  ["CCC(CP(CCP(CC(CC)OC)CC(CC)OC)CC(CC)OC)OC (stereo not drawn)", "criterion not met"],
  ["COCC(COC)CP(CCP(CC(COC)COC)CC(COC)COC)CC(COC)COC", "criterion not met"],
  ["CCOCCOCCP(CCOCCOCC)CCP(CCOCCOCC)CCOCCOCC", "criterion not met"],
  ["FC(F)(F)COCCCP(CCCOCC(F)(F)F)CCP(CCCOCC(F)(F)F)CCCOCC(F)(F)F", "criterion not met"],
  ["CCOC=CP(C=COCC)CCP(C=COCC)C=COCC", "criterion not met"],
  ["COCC(C)CP(CCP(CC(C)COC)CC(C)COC)CC(C)COC (stereo not drawn)", "criterion met"],
  ["C1CC(CP(CCP(CC2CCOCC2)CC2CCOCC2)CC2CCOCC2)CCO1", "criterion met"],
  ["CCOCCP(CCOCC)c1ccccc1P(CCOCC)CCOCC", "criterion not met"]
]}

---

Assay: Rat biodistribution of Tc-99m complexes
Conditions: 60 min p.i.
compounds and their reported Heart

{"columns": ["compound", "Heart, % Injected dose/organ"],
 "data": [
  ["CCOCCP(CCOC)CCP(CCOC)CCOCC (stereo not drawn) [Compound 28]", 0.69],
  ["COC(C)CCP(CCC(C)OC)CCP(CCC(C)OC)CCC(C)OC (stereo not drawn) [Compound 15]", 0.51],
  ["C1COC(CP(CCCP(CC2CCCO2)CC2CCCO2)CC2CCCO2)C1 (stereo not drawn) [Compound 35]", 0.32]
]}

---

Catalogue of Blood values
Assay: Rat biodistribution of Tc-99m complexes
Conditions: 2 min p.i.
measure: Blood

{"columns": ["compound", "testValue"],
 "data": [
  ["CCOC(C)CP(CCP(CC(C)OCC)CC(C)OCC)CC(C)OCC (centres unmarked)", "7.17 % Injected dose/organ"],
  ["COCC(C)CP(CCP(CC(C)COC)CC(C)COC)CC(C)COC (centres unmarked)", "15.4 % Injected dose/organ"],
  ["CCOCCP(CCOCC)c1ccccc1P(CCOCC)CCOCC", "12.4 % Injected dose/organ"],
  ["CCOCCP(CCOC)CCP(CCOC)CCOCC (centres unmarked)", "9.0 % Injected dose/organ"],
  ["CCCOCCP(CCOC)CCP(CCOC)CCOCCC (centres unmarked)", "8.75 % Injected dose/organ"],
  ["COC(C)CCP(CCC(C)OC)CCP(CCC(C)OC)CCC(C)OC (centres unmarked)", "12.2 % Injected dose/organ"],
  ["C1OCC(CP(CCP(CC2COCO2)CC2COCO2)CC2COCO2)O1 (centres unmarked)", "18.6 % Injected dose/organ"],
  ["CCOCCP(CCOCC)CC(CP(CCOCC)CCOCC)OC", "10.8 % Injected dose/organ"],
  ["CCOCCP(CCOCC)CCP(CCOCC)CCOCC [Compound 1, (EtOC2 H4)2 P--C2 H4 --P(C2 H4 OEt)2]", "2.25 % Injected dose/organ"],
  ["C1COC(CP(CCCP(CC2CCCO2)CC2CCCO2)CC2CCCO2)C1 (centres unmarked)", "10.5 % Injected dose/organ"],
  ["CCOCCP(CCOC(C)C)CCP(CCOCC)CCOC(C)C (centres unmarked)", "6.88 % Injected dose/organ"],
  ["COC(CCP(CCC(OC)OC)CCP(CCC(OC)OC)CCC(OC)OC)OC", "18.8 % Injected dose/organ"],
  ["CC1(C)OCC(CP(CCP(CC2COC(C)(C)O2)CC2COC(C)(C)O2)CC2COC(C)(C)O2)O1 (centres unmarked)", "10.4 % Injected dose/organ"],
  ["COC(C)(C)CCP(CCP(CCC(C)(C)OC)CCC(C)(C)OC)CCC(C)(C)OC", "11.4 % Injected dose/organ"],
  ["C1CC(CP(CCP(CC2CCOCC2)CC2CCOCC2)CC2CCOCC2)CCO1", "18.10 % Injected dose/organ"],
  ["CCOCCP(CCCP(CCOCC)CCOCC)CCOCC", "19.5 % Injected dose/organ"],
  ["COCCCP(CCCOC)CCP(CCCOC)CCCOC", "18.8 % Injected dose/organ"],
  ["CCOCCP(CCOCCF)CCP(CCOCC)CCOCCF (centres unmarked)", "5.85 % Injected dose/organ"],
  ["CCOC(CCP(CCC(OCC)OCC)CCP(CCC(OCC)OCC)CCC(OCC)OCC)OCC", "7.14 % Injected dose/organ"],
  ["COCC(COC)CP(CCP(CC(COC)COC)CC(COC)COC)CC(COC)COC", "5.86 % Injected dose/organ"],
  ["CCOCP(CCP(COCC)COCC)COCC", "12.4 % Injected dose/organ"],
  ["FC(F)(F)COCCCP(CCCOCC(F)(F)F)CCP(CCCOCC(F)(F)F)CCCOCC(F)(F)F", "40.5 % Injected dose/organ"],
  ["C1COC(CP(CCP(CC2CCCO2)CC2CCCO2)CC2CCCO2)C1 (centres unmarked)", "3.92 % Injected dose/organ"],
  ["CCOCCCP(CCCOCC)CCP(CCCOCC)CCCOCC", "7.46 % Injected dose/organ"],
  ["COCCP(CCOC)CCP(CCOC)CCOC", "19.85 % Injected dose/organ"],
  ["COC(C)CP(CCP(CC(C)OC)CC(C)OC)CC(C)OC (centres unmarked)", "9.45 % Injected dose/organ"],
  ["CCOCC(COCC)CP(CCP(CC(COCC)COCC)CC(COCC)COCC)CC(COCC)COCC", "24.2 % Injected dose/organ"],
  ["CCOC=CP(C=COCC)CCP(C=COCC)C=COCC", "15.6 % Injected dose/organ"],
  ["CCOCCOCCP(CCOCCOCC)CCP(CCOCCOCC)CCOCCOCC", "11.0 % Injected dose/organ"],
  ["CCOCCCP(CCOC)CCP(CCCOCC)CCOC (centres unmarked)", "9.52 % Injected dose/organ"],
  ["CCC(CP(CCP(CC(CC)OC)CC(CC)OC)CC(CC)OC)OC (centres unmarked)", "11.7 % Injected dose/organ"],
  ["CCOCP(CCCP(COCC)COCC)COCC", "17.9 % Injected dose/organ"]
]}
